# credit: PubChem BioAssay (NCATS)

# Tested on: CP325
# Procedure summary: qHTS profiling for inhibitors of Plasmodium falciparum proliferation (AID 504749); note: nearly all actives have a fitted effect of over 60% in size
# Settings: P. falciparum in erythrocytes, SYBR Green DNA, 72 h; series mostly up to 28.7 µM
Inconclusive results are not listed. Active and inactive are the calls of the source. Calls come from the whole dose curve; as a rule, active = well fitted inhibition curve with a large enough effect; inconclusive = small, poorly fitted or top-dose-only effect; inactive = flat fitted curve, though single readings scatter.
Please state which outcome applies, choosing from class 1 (active), class 0 (inactive)

Use the examples below as a reference point.
Molecule	Class label
CCCC(C)(COC(N)=O)COC(=O)NC(C)C (stereo unspecified)	class 0
C[C@]12C/C(=C/O)C(=O)C[C@@H]1CC[C@@H]1[C@@H]2CC[C@@]2(C)[C@H]1CC[C@]2(C)O	class 0
Cc1ccc(-c2nc3ccc(C)cn3c2CC(=O)N(C)C)cc1	class 0
CCC(C(N)=O)N1CCCC1=O (stereo unspecified)	class 0

Q: Name the outcome recorded for Fc1ccc(C(OCCN2CCN(CCCc3ccccc3)CC2)c2ccc(F)cc2)cc1 in the assay.
Result: class 1

Q: Name the outcome recorded for Clc1cccc(N2CCNCC2)c1 in the assay.
Result: class 0
